# Tested system: D-2 (dopamine-2) receptors (Rattus norvegicus, UniProt P61169)
# Construct: The D2 assay employed a P2 fraction from the striatum, the ligand ^3H-spiperone at a concentration of 0.05 nM; from tissue; host or cells: rat striatum, P2 fraction (synaptosomal membranes), male Wistar rats
# Sequence (P61169 whole entry): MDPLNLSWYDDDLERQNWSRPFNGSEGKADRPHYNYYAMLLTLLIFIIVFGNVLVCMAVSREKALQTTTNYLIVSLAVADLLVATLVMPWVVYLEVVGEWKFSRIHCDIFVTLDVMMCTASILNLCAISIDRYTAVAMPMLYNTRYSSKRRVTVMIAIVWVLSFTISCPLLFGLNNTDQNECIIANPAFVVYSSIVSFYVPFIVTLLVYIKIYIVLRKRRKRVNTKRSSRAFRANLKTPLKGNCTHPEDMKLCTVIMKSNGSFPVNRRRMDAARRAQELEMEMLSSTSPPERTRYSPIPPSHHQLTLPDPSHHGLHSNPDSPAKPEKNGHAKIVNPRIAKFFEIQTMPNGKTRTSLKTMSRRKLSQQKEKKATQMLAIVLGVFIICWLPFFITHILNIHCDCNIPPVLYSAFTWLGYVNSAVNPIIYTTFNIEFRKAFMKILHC
# Assay name: biochemical
# Format: binding, male, Wistar rats
# Assay context: rat striatum P2 fraction, 3H-spiperone 0.05 nM; read-out: Receptor Binding (Ki nM) D2
Assay readout: Ki

Please review the following examples before continuing.
# Compound, Tested system, Ki
data = [
    ("CC(C)Oc1ccccc1N1CCN(Cc2cccc(C(N)=O)c2)CC1", "D-2 (dopamine-2) receptors (Rattus norvegicus, UniProt P61169)", "46 nM"),
    ("CC(C)Oc1ccccc1N1CCN(Cc2cccc(C(=O)N3CCN(c4ccccc4)CC3)c2)CC1", "D-2 (dopamine-2) receptors (Rattus norvegicus, UniProt P61169)", "10.4 nM"),
    ("CCOC(=O)C1CCN(C(=O)c2cccc(CN3CCN(c4ccccc4OC(C)C)CC3)c2)CC1", "D-2 (dopamine-2) receptors (Rattus norvegicus, UniProt P61169)", "121 nM"),
    ("CC(C)Oc1ccccc1C1CCN(Cc2cccc(C(=O)N3CCCCCC3)c2)CC1", "D-2 (dopamine-2) receptors (Rattus norvegicus, UniProt P61169)", "1.2 nM"),
    ("CCOC(=O)C1CCCCN1C(=O)c1cccc(CN2CCN(c3ccccc3C)CC2)c1 (centres unmarked)", "D-2 (dopamine-2) receptors (Rattus norvegicus, UniProt P61169)", "132 nM"),
    ("CC(C)Oc1ccccc1N1CCN(Cc2cccc(C(=O)N3CCC4CCCCC43)c2)CC1 (centres unmarked)", "D-2 (dopamine-2) receptors (Rattus norvegicus, UniProt P61169)", "5.6 nM"),
    ("CC(C)Oc1ccccc1N1CCN(Cc2ccc([N+](=O)[O-])c(C(=O)N3CCCCC3)c2)CC1", "D-2 (dopamine-2) receptors (Rattus norvegicus, UniProt P61169)", "85 nM"),
    ("CC(C)Oc1ccccc1N1CCN(Cc2cccc(S(=O)(=O)N3CCCC(C)(C)C3)c2)CC1", "D-2 (dopamine-2) receptors (Rattus norvegicus, UniProt P61169)", "45 nM"),
    ("CC(C)Oc1ccccc1N1CCN(Cc2cccc(C(=O)N3CCCCC3C(=O)O)c2)CC1 (centres unmarked)", "D-2 (dopamine-2) receptors (Rattus norvegicus, UniProt P61169)", "> 1000 nM"),
    ("CC(C)Oc1ccccc1N1CCN(Cc2cccc(C(=O)N(C)Cc3ccccc3)c2)CC1", "D-2 (dopamine-2) receptors (Rattus norvegicus, UniProt P61169)", "13 nM"),
]

Prompt: Bench note: what Ki did CC(C)Oc1ccccc1N1CCN(Cc2cccc(C(=O)N3CCCC3CO)c2)CC1 (centres unmarked) show?
Completion: 9 nM

Prompt: Bench note: what Ki did CC(O)COc1ccccc1N1CCN(Cc2cccc(C(=O)N3CCCCC3)c2)CC1 (centres unmarked) show?
Completion: 703 nM

###

# Tested on: Male, Fischer 344 rats
# Assay name: Block of Conditioned Avoidance Responding (Rat) test (CAR)
# Assay context: at CAR 15 mg/kg IP
Mark satisfied for reported (Escape Loss) % failures to escape of 9% or greater; mark not satisfied for anything smaller.

Example cases with answers are listed next.
# Molecule, Tested system, Category label
records = [
    ("CC(=O)Nc1ccc(CN2CCN(c3ccccc3OC(C)C)CC2)cc1C(=O)N1CCCCC1", "Male, Fischer 344 rats", "satisfied"),
    ("CC(C)Oc1ccccc1N1CCN(Cc2cccc(C(=O)NCCCCCCN)c2)CC1", "Male, Fischer 344 rats", "satisfied"),
    ("O=C(c1cccc(CN2CCN(c3ccccc3Cl)CC2)c1)N1CCCCC1", "Male, Fischer 344 rats", "not satisfied"),
]

Prompt: Test whether the molecule O=C(c1cccc(CN2CCN(c3ccccc3)CC2)c1)N1CCCCC1 records (Escape Loss) % failures to escape of 9% or higher.
Completion: satisfied

Prompt: Test whether the molecule CC(C)Oc1ccccc1N1CCN(Cc2cccc(C(=O)N(C)CCc3ccccc3)c2)CC1 records (Escape Loss) % failures to escape of 9% or higher.
Completion: not satisfied

Prompt: Test whether the molecule CC(C)Oc1ccccc1N1CCN(Cc2ccc(N)c(C(=O)N3CCCCC3)c2)CC1 records (Escape Loss) % failures to escape of 9% or higher.
Completion: satisfied

Prompt: Test whether the molecule CC(O)COc1ccccc1N1CCN(Cc2cccc(C(=O)N3CCCCC3)c2)CC1 (centres unmarked) records (Escape Loss) % failures to escape of 9% or higher.
Completion: not satisfied

Reference source: patent EP0563345B1
